Assign apparent KD of MS2 coat protein to each entry below.
Test system: MS2 coat protein
Assay: apparent KD of MS2 coat protein; higher = weaker reporter binding
Conditions: Eterna round: R101; input ligand: FMN 200 uM
Dear colleague, please return just the value in nM, with no unit written.

// apparent KD of MS2 coat protein lookup, key: AAAGAUUUUUAAGGAUAUGACUCCGAAACGGAGUCAGAAGGUGAGGAUCACCCACCUAGCUCAGGGUCGAAAGACCCUGAGCAA [#SharedSequence - ExNG1-13] (puzzle (switch architecture): Exclusion NG 1) 9.48

Try the sequence AAAGAUUUUUAAGGAUAUCAGUGGCAAAGCCACUGAGAAGGUGAGGAUCACCCAUCUACGUGACCCUGGAAACAGGGUCACGAA [#SharedSequence - ExNG1-16] (puzzle (switch architecture): Exclusion NG 1) 96.9
